assay.method.text: self-splicing fitness, log relative to wild type (ln ratio); higher = more splicing; Tetrahymena group I intron in knt gene, E. coli kanamycin selection, DiMSum; sequences stand for … in CUCUCU…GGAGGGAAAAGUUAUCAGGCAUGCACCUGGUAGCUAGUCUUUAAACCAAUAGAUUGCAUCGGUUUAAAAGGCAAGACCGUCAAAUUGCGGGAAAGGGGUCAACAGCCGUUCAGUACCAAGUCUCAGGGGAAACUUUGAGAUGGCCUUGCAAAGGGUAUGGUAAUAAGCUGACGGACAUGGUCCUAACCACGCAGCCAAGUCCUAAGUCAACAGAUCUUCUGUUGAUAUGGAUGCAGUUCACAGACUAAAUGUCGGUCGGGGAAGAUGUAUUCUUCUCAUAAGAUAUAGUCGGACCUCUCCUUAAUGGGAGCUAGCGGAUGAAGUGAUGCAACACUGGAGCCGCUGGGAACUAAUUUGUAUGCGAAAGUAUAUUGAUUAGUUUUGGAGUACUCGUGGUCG;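 further: selection with 25 µg/mL kanamycin versus none on LB agar overnight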
condition: 30 °C
measured.parameter: self-splicing fitness (ln)
Give the value as a plain number.

Tell me the measured self-splicing fitness (ln) of `UGCAAGCAAUAUUACGUGAA` , please.
-2.26

Tell me the measured self-splicing fitness (ln) of `UCCGAGCAAUAUUACGUAGC` , please.
-3.33

Tell me the measured self-splicing fitness (ln) of `AAUUAGCAAUAUUACGCAUG` , please.
-1.7

Tell me the measured self-splicing fitness (ln) of `UGCGAGCAAUAUUACGACGU` , please.
-2.92

Tell me the measured self-splicing fitness (ln) of `GAUGAGCAAUAUUACGCAAU` , please.
-4.35

Tell me the measured self-splicing fitness (ln) of `CUUGAGCAAUAUUACGGUUC` , please.
-3.56

Tell me the measured self-splicing fitness (ln) of `UCUUAGCAAUAUUACGGCGA` , please.
-0.253

Tell me the measured self-splicing fitness (ln) of `ACAGAGCAAUAUUACGCACU` , please.
-3.25

====

assay.method.text: self-splicing fitness, log relative to wild type (ln ratio); higher = more splicing; Tetrahymena group I intron in knt gene, E. coli kanamycin selection, DiMSum; sequences stand for … in CUCUCU…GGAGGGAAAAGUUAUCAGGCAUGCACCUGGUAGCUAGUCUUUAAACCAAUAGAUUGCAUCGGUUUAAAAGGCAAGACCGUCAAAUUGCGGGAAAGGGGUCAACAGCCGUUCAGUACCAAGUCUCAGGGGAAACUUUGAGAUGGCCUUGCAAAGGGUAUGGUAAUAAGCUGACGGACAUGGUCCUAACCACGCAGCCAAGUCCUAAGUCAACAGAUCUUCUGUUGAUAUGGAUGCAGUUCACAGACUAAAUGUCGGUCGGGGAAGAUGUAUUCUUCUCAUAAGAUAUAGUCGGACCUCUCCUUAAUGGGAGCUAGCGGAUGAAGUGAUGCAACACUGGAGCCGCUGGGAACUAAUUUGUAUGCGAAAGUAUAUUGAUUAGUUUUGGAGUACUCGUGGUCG
condition: 37 °C
measured.parameter: self-splicing fitness (ln)
Give the value as a plain number.

Tell me the measured self-splicing fitness (ln) of `ACUAAGCAAUAUUACGAUUC` , please.
-0.397

Tell me the measured self-splicing fitness (ln) of `CAGGAGCAAUAUUACGAUUA` , please.
-2.37

Tell me the measured self-splicing fitness (ln) of `GGUUAGCAAUAUUACGUCGG` , please.
-1.7

Tell me the measured self-splicing fitness (ln) of `CGUUAGCAAUAUUACGGCGC` , please.
-2.24

Tell me the measured self-splicing fitness (ln) of `ACCCAGCAAUAUUACGUAUC` , please.
-1.63

Tell me the measured self-splicing fitness (ln) of `GGAGAGCAAUAUUACGACAC` , please.
0.238

Tell me the measured self-splicing fitness (ln) of `CCGUAGCAAUAUUACGGAAU` , please.
-1.92

Tell me the measured self-splicing fitness (ln) of `UCACAGCAAUAUUACGAUUU` , please.
-0.814

Tell me the measured self-splicing fitness (ln) of `ACAUAGCAAUAUUACGAUUU` , please.
-0.157

Tell me the measured self-splicing fitness (ln) of `GGCGAGCAAUAUUACGGAAC` , please.
-1.68

Tell me the measured self-splicing fitness (ln) of `UAGCAGCAAUAUUACGCUAA` , please.
-1.73

Tell me the measured self-splicing fitness (ln) of `GCGCAGCAAUAUUACGCCAU` , please.
-1.84

Tell me the measured self-splicing fitness (ln) of `UUAAAGCAAUAUUACGAUCG` , please.
0.338

Tell me the measured self-splicing fitness (ln) of `UCACAGCAAUAUUACGAGAC` , please.
-2.61

Tell me the measured self-splicing fitness (ln) of `CUCAAGCAAUAUUACGCCCG` , please.
-2.11

Tell me the measured self-splicing fitness (ln) of `GCAGAGCAAUAUUACGACAG` , please.
-2.74

====

I'd be grateful if you could share measured self-splicing fitness (ln) for these entries.
assay.method.text: self-splicing fitness, log relative to wild type (ln ratio); higher = more splicing; Tetrahymena group I intron in knt gene, E. coli kanamycin selection, DiMSum; sequences stand for … in CUCUCU…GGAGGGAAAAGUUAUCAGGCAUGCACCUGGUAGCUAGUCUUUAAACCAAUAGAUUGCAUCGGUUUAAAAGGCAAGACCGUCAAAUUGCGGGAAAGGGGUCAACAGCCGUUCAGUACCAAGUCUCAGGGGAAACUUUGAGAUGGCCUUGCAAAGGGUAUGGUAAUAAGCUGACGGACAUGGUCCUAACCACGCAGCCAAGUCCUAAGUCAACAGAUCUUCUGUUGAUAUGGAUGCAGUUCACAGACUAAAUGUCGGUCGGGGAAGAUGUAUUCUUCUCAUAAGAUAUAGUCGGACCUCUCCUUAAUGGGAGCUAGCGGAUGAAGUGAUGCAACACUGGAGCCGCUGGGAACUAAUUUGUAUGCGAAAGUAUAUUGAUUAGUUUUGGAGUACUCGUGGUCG
condition: 37 °C
Give the value as a plain number.

Tell me the measured self-splicing fitness (ln) of `CACUAGCAAUAUUACGGUUA` , please.
-0.466

Tell me the measured self-splicing fitness (ln) of `GUGGAGCAAUAUUACGCGAG` , please.
-1.53

Tell me the measured self-splicing fitness (ln) of `GAAGAGCAAUAUUACGUGAG` , please.
-1.11

Tell me the measured self-splicing fitness (ln) of `GAACAGCAAUAUUACGAGAU` , please.
-1.4

Tell me the measured self-splicing fitness (ln) of `CCAAAGCAAUAUUACGGUAC` , please.
-3.13

Tell me the measured self-splicing fitness (ln) of `CAUGAGCAAUAUUACGAUGC` , please.
-1.89

Tell me the measured self-splicing fitness (ln) of `UUGAAGCAAUAUUACGGGGA` , please.
0.372

Tell me the measured self-splicing fitness (ln) of `GUUUAGCAAUAUUACGCGUA` , please.
-0.606

Tell me the measured self-splicing fitness (ln) of `CCGGAGCAAUAUUACGUACC` , please.
-0.504

Tell me the measured self-splicing fitness (ln) of `AAUAAGCAAUAUUACGUCCG` , please.
-0.82

Tell me the measured self-splicing fitness (ln) of `UGUUAGCAAUAUUACGAAUA` , please.
-0.0107

Tell me the measured self-splicing fitness (ln) of `GGCAAGCAAUAUUACGGAUC` , please.
-0.11

Tell me the measured self-splicing fitness (ln) of `UGUAAGCAAUAUUACGGGUA` , please.
-0.187

Tell me the measured self-splicing fitness (ln) of `GUCUAGCAAUAUUACGGGCG` , please.
-0.341

Tell me the measured self-splicing fitness (ln) of `GGAUAGCAAUAUUACGGCCG` , please.
0.103

Tell me the measured self-splicing fitness (ln) of `GCGGAGCAAUAUUACGUGGA` , please.
-2.38

====

assay.method.text: self-splicing fitness, log relative to wild type (ln ratio); higher = more splicing; Tetrahymena group I intron in knt gene, E. coli kanamycin selection, DiMSum; sequences stand for … in CUCUCU…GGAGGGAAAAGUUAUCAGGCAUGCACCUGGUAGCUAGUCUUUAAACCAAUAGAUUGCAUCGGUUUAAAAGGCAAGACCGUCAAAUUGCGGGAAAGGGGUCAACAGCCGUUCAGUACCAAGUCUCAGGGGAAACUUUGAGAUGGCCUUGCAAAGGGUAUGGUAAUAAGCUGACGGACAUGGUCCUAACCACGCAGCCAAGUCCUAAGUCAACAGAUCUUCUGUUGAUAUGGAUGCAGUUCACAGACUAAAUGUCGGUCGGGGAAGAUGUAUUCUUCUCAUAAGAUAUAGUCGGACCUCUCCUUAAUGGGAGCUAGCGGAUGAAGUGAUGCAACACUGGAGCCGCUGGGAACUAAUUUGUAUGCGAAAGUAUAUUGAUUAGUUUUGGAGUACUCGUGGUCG
condition: 37 °C
measured.parameter: self-splicing fitness (ln)
Give the value as a plain number.

Tell me the measured self-splicing fitness (ln) of `GGAAAGCAAUAUUACGUCAA` , please.
-0.985

Tell me the measured self-splicing fitness (ln) of `CAAAAGCAAUAUUACGAACC` , please.
-1.45

Tell me the measured self-splicing fitness (ln) of `AGCUAGCAAUAUUACGUCAG` , please.
-2.84

Tell me the measured self-splicing fitness (ln) of `ACACAGCAAUAUUACGGUUG` , please.
-1.31

Tell me the measured self-splicing fitness (ln) of `GCAGAGCAAUAUUACGACUA` , please.
-2.12

Tell me the measured self-splicing fitness (ln) of `CAAAAGCAAUAUUACGCCUG` , please.
-0.273

Tell me the measured self-splicing fitness (ln) of `ACACAGCAAUAUUACGACAC` , please.
0.0205

Tell me the measured self-splicing fitness (ln) of `AGGAAGCAAUAUUACGGUAA` , please.
-2.26

Where do these numbers come from? They come from the supplement of paper PMC7877785.
